- experimentalProtocol: protease stability score; higher = more stable; yeast display proteolysis, trypsin and chymotrypsin
assayReadout: protease stability score
Please reply with the value in numeric form only.

Previously resolved entries follow.
- macromoleculeSequence: "DEEDKWDELLLEILIRIEKTGDEEKWLRFLDPHVRLDVDGQEVHGREEVVRVQKEWKERLGVKHIVIKRTKVVNGRIDMDKVMNVDGVNIKVHYHYHLVNGVLHEVEVRLE"
  protease stability score: 0.992
- macromoleculeSequence: "SEMEEHAERVWRIMLTLLLTGDEEKFNHLADPNTRLIIIIGDKELHFHGRHEISNYLHRYLREIRIDHFHEHSITVQGNWVHTDGIMLGRFDGKRHEIRVHIHLIVIDGRIKEIYLENR"
  protease stability score: 1.64

Next:
Return the recorded protease stability score value; entry: DEQETHNNNILERLIRILHTGDEHIYEHLFDPHARLHIGDKRFHGREELSRWLRRLGVRWEHFIERDVEVQGEKLRIEGERTVHIDGVRHHHRTEIIIIVIDGKIKSYEERHV
0.572

* * *

- experimentalProtocol: protease stability score; higher = more stable; yeast display proteolysis, trypsin and chymotrypsin;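 further: relative to predicted unfolded state with 0 unfolded-like and 1 meaning tenfold more protease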
assayReadout: protease stability score
Please reply with the value in numeric form only.

Return the recorded protease stability score value; entry: DKREEEVHELIRELVESIITGDFRHFFKLLDPHARSEVGDKELHGREQISDWLLKHIRRVKNITFKEVHFHELRVIGDKVEFHFDIRGVINGQDTTLEVEMKARKIDGRWHVEEIRFI
1.28

Return the recorded protease stability score value; entry: SEDDERMKKLLSDIWRLLMTGDEELWAKLADPNVRVDVNGRERHGREEVVKLLRELRHERRGRREEHHTVEDFRIYGDYSEVDYRYWVVFNGQREDVTMHIHIQVVNGRLKEIEIKMR
1.51

Return the recorded protease stability score value; entry: SDWEDLVRMAFHHFIHSMRTGDEDIIHQLLDPEVKINVGDKVIHGREQAFDYIHTLVNRADHIRFRLDHLDVQGDFIEIRTTVDLTYGDKHHRMEVTFFSRKVDGVWLIERVQIK
1.27

* * *

// reported protease stability score for each item listed
- experimentalProtocol: protease stability score; higher = more stable; yeast display proteolysis, trypsin and chymotrypsin;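 further: relative to predicted unfolded state with 0 unfolded-like and 1 meaning tenfold more protease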
Please reply with the value in numeric form only.

Previously resolved entries follow.
- macromoleculeSequence: "DEEKEDAYRNAELWIKSINTGDEDVLTDLLDPHARIDIGDKKLHGMESFTKLYRDLGFRIKDFHLKDIRIYGEKIEIHGIIHFEQGDKEHNEDTTIILLKVNGKWIIKRLRVN"
  protease stability score: 1.5
- macromoleculeSequence: "EEDEHFAESYAEIMIHSWITGNEDLFEHLADPNWRLRVGDKEFHGREEATEFLIEFYERIDHFEIHIHDMKNIGEKLFIDGELNIHVNGRTIRHHTEIVIYTINGKVKSEEVRIK"
  protease stability score: 1.95
- macromoleculeSequence: "RDIEEINKRALESWKHALETGDEDTMEELLDPHVRVEDEHEMHHGRSAFHLWIKRVDHFRSLHIRETRIVGDKVDNNVEVDGTINGQDRLIEIRLVLVKFNGKWKFRSIHFK"
  protease stability score: 1.38
- macromoleculeSequence: "SDIEDHAIEFFSNELWSWHTGDEHDLKKLLDPNARIYINGVEVHGRERVLEDLIENMRRRGVRVNEVRVRDFHIVGNFLHFDVRIKYRVGDKILTYEVRILVLKIDGVWFFSELRIE"
  protease stability score: 1.55
- macromoleculeSequence: "REDVEDFKRFIELEVHAHETGDEDLLRKLLDPHVRVIIDGVTIVGWKALRDLLERFDHYTIHHMHIEDLRIQGDKIIVDLRLDLIFNYNGRHLRVDSHARIIMIKYNGRWYNHSIEFE"
  protease stability score: 2.12
- macromoleculeSequence: "SKEDEDFNERTREWLEILETGDWRKLARLLDPNVLNIVGDKEHHGREEVIKSFRTYLEKVPNMRFTTRRIRLQGDKVDLDGDLYFNGKEIKVRIFLVIYDGRVHSMEVREE"
  protease stability score: 1.09
- macromoleculeSequence: "DEREELIQRFLEMLIHLYLTGDEDWFLRMADPNARLHWNGKDRHGREIILEELIRLLRRFDHVRIDVKKFEVQGDKVIADGLEIYTQGDKRIEVDTKIVLTTVNGKLKTLVWHID"
  protease stability score: 0.642
- macromoleculeSequence: "NEDEESIRRAVEHWSKLILTGDESLLRQMADPNVRIQVGDKRIIGMDSLVKLMEDLGWEMEIRTKIRHTEIINGKMHTRTQLDIHFRQGDKKVDIHRDTEIVIEKVDGRWHIHSIRIE"
  protease stability score: 0.752
- macromoleculeSequence: "DEEHEETHRWVELFIRHHLTGDEDFIMKMLDPNTRWHIDGRTFHGMETVFDARKKERNKLGADHVRFTSFEIQGDFLHILGSIHIDGKELDEKIIIEVIDGRLNSILVTRR"
  protease stability score: 0.661
- macromoleculeSequence: "DEEEKEMKEALHEQKRSHETGDERVLEELIDPNVRLDINGREHHGREEAIRLWHELGIDHFDIRDFRVVNGRAHIDGHMVINGQRVDVTLIVHKINGRWRQHHIVVR"
  protease stability score: 0.04

Return the recorded protease stability score value; entry: SEHKELVEHITKLSWELLKTGDEEILLHLADPDMKVEVGDKEMHGREEWARFLIETLRRVKNLRVDLHRVHIQGEKAHVDGTIFIDGVEFTDQLNFVVINGRIKHINIIDR
1.46

Return the recorded protease stability score value; entry: DDRHEENKEITRRQFELFETGDEEILHHLADPHVRLRIDGQHNHGREELERSLRELRKELGANVLILRRIRVIGDKMEVEGEFDYNGRNFHATFRFNVIDGRLHSMSIEIR
0.832

Return the recorded protease stability score value; entry: DEEEEFLHTLLRIFVEALMTGDEELLKKLADPHTKVRFNGQERHGWHAIQWMIEFFKNVRIEIHDMHIQGDKVHIDGRLKQGDKKLEMRIIIVIVNGKVHNEEYDLR
1.12

Return the recorded protease stability score value; entry: DEDRRLMEELTRHRIDLKKTGNEELLRTLADPNTRALVNGKDMHGREQIATWLWQFREDLGVDHIDLEDFHVQGDKMEVHLDWKVNGQRIEVIVIIYIVDGRIKKEEMHFT
0.416

Return the recorded protease stability score value; entry: DEEEQHLKKFLKYLKKAIETGDWHKITEMADPNTRLNINGVDNIGWEIISHILMHELEELGLEQIHVHFEHERIQGDKVKLEIHLHIGDKVEHAEMYILKFDGRWRIKRLVRG
1.93

Return the recorded protease stability score value; entry: DEDEELARKVLKVWNQAVQTGDEEVLHKLFDPNVQLVQGDKQLHGMESLVRFLRRYDVVRHVDSDVERIHVQGDKIRVTIRLIVDMEINGKRVRTELTIHFIIEKIDGRWVLRELHFE
0.964

* * *

- experimentalProtocol: protease stability score; higher = more stable; yeast display proteolysis, trypsin and chymotrypsin;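 further: relative to predicted unfolded state with 0 unfolded-like and 1 meaning tenfold more protease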
// reported protease stability score for each item listed
Please reply with the value in numeric form only.

- macromoleculeSequence: "DEDEKIIQQFLREHTETNDTGDENTFKKQLDPHARTIFNGREYHGREDAYRILKELGWSRFEFHLRHVDIQGEKLHVMGLLRVDGKWLDVEIVANKINGRWVLTEFHIN"
  assayReadout: "protease stability score"
  quantitativeReadout: 0.417

Return the recorded protease stability score value; entry: EEDDRDLEDLLTKLDSAIQTGNWEILHHLIDPHARSHYNGRDFHGWRDLEFLLRIIVEEIRLDTVDMKHHEFYGDKMRLETTLTGEVNGQKTEFTTVLIYLKIDGKWVIHNFEVR
0.729

Return the recorded protease stability score value; entry: EEDSEMAREISESILRMIKTGDERHFMRLLDPHVKIDINGREHHGRHAATHQLRETSEKFGFDRITVRLESVHVQGEYVNINGRVEQGDFHLTLHFHFRKIDGRWVMDSVHIV
0.559

Return the recorded protease stability score value; entry: SEDDEDNERWFERLLHSLHTGNEELTRKLMDPNVRVDFNGKDLHGMDHMVKLVRHLRNRVDHLHMLVHHSDNINGVAHNDVTLELRYGDKTERLRVRIVASKVDGRWILKSVEID
1.28

Return the recorded protease stability score value; entry: NELEDLVRWAWQLIVESHQTGNEHMMEELADPNMRIHINGVDLVGRKDFRKMLKDHRDRVDHLEVELTDFILIDGRVIVHGQINIQIGDKREERRVRLFLLKINGKWRIEKLEVE
1.64

* * *

- experimentalProtocol: protease stability score; higher = more stable; yeast display proteolysis, trypsin and chymotrypsin;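 further: relative to predicted unfolded state with 0 unfolded-like and 1 meaning tenfold more protease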
assayReadout: protease stability score
Please reply with the value in numeric form only.

- macromoleculeSequence: "SEEEEIVRHANHLFTHAMNTGDWRLLKELFDPHTKILIDGQEHHGWSIIYRELRHIRIDHVEMRIRSVHTQGNKAHVDGEIIVEGTVNGVTHKTSNRVNLIIRKVDGRWIVESIDIH"
  assayReadout: "protease stability score"
  quantitativeReadout: 1.55

Return the recorded protease stability score value; entry: NMDEKLKRWAIEDHIKSDETGDENMKEHYMDPNVRIDIGDYELHGREAAIRDIRRIRHEMGVKVMHVEIEHVDVQGEKIRIHSRLIFEINGKEVRHETNIIYSKFDGRWVLKHESIK
0.102

Return the recorded protease stability score value; entry: DEEEEMVLEMAYLFIHALHTGDEDMIRHLADPNMKVDINGQEHHGRDMSNEWWRREIDQIKNVRVDIDIDELHVIDGVAYVRTTVRYHFDGRTIVYFTTFDLIIVNGKIKSVKWEVE
1.83

Return the recorded protease stability score value; entry: DEEERVRDEIERLIEESLRTGDWRHLSELFDPNVRMEVGDKDIIGRERVHQAIHDFWKSFGADHRHLHDIEEINGVVIMHMRYRVGNKTVHFHVIMIKINGRWFLHSVHIHID
1.11

Return the recorded protease stability score value; entry: DEHDHILKRLSEELLHMMETGDEDALAELFDPHARMEYNGQEIHGRRDVERIRREILEKLGVDKIHTEVKEERFVGEKLEVHTHLHVDGVHFTVRIHWVKFNGRWVIRTLHIE
1.38
